test system: T-47D breast; experiment: NCI tumour cell line growth inhibition, 48 h
Recorded GI50 values for a group of compounds are listed next.
observation-type: GI50

1. COc1ccc(-c2c3c(N)nc(-c4ccncc4)nc3nc3c2c(C)nn3-c2ccccc2)cc1 :: 3.96 µM
2. Cn1cccc1-c1cc(-c2cccs2)nc(N)c1C#N :: > 100 µM
3. COC(=O)[C@@]1(C)CC[C@]2(C)CC[C@]3(C)C4=CC=C5C(=CC(=O)C(O)=C5C)[C@]4(C)[C@@H](O)C[C@@]3(C)[C@@H]2C1 :: 3.04 µM
4. OC(c1cc(-c2ccccc2)nc2ccc(Cl)cc12)C1CCCCN1 (stereo not drawn) :: 2.51 µM
5. CN1CCC(n2cnc(-c3ccc(F)cc3)c2-c2ccnc(NCCO)n2)CC1 :: > 25 µM
6. COc1cccc(-n2ncc3c(N/N=C/c4ccc(C(=O)NCCN(C)C)cc4)ncnc32)c1 :: > 22.6 µM
7. COc1cccc2c1c(C(=O)C(=O)Nc1cc(C)no1)cn2Cc1ccc(F)cc1 :: 5.17 µM
8. CC1SC(c2ccccc2)N(CCc2cccs2)C1=O (stereo not drawn) :: 2.16 µM
9. Cc1ccc(-c2cn3ccnc3c(-c3ccc(Cl)cc3)n2)cc1 :: 8.12 µM
10. O=C(O)/C=C\C(=O)N1C/C(=C\c2ccccc2Cl)C(=O)/C(=C/c2ccccc2Cl)C1 :: 4.48 µM
11. COc1ccc(-c2csc(N(C(=O)N3CCN(c4cc5c(cc4F)c(=O)c(C(=O)O)cn5C4CC4)CC3)c3ccccc3)n2)cc1 :: 2.65 µM
12. COc1cc(C2CC(c3ccc4c(c3)OCO4)=NN2C=O)cc(OC)c1OC (stereo not drawn) :: 3.34 µM
13. COc1ccc(-c2nn3c(-c4cc(F)c(Cl)cc4Cl)nnc3s2)cc1 :: 27.5 µM

----------
test system: HOP-92 NSCLC; experiment: NCI tumour cell line growth inhibition, 48 h
observation-type: TGI (µM)

1) C/C(=N/NC(=S)Nc1ccc([N+](=O)[O-])cc1)c1cccc(/C(C)=N\NC(=S)Nc2ccc([N+](=O)[O-])cc2)n1 :: 11.6
2) c1ccc([P+](Cc2ccc(C[P+](c3ccccc3)(c3ccccc3)c3ccccc3)cc2)(c2ccccc2)c2ccccc2)cc1 :: 93.4

----------
system: K-562 leukemia; test: NCI tumour cell line growth inhibition, 48 h
observation-type: TGI

1) NCCn1c(=O)[nH]c(=O)[nH]c1=S :: > 100 µM
2) C[C@@H]1C[C@H]2CC[C@H](O2)[C@H](C)C(=O)O[C@@H](C)C[C@@H]2CC[C@@H](O2)[C@@H](C)C(=O)O[C@H](C)C[C@H]2CC[C@H](O2)[C@H](C)C(=O)O[C@@H](C)C[C@@H]2CC[C@@H](O2)[C@@H](C)C(=O)O1 :: > 33.8 µM
3) O=C(/C=C(\O)c1ccccc1)C(=O)NNc1ccc([N+](=O)[O-])cc1[N+](=O)[O-] :: 95.1 µM
4) COC(=O)C(=O)C1(CCC(C)=O)c2ccccc2-c2c(C)ccc(C)c21 (centres undefined) :: > 100 µM
5) CC(=O)OCC1OC(OC2C(CSC3OC(COC(C)=O)C(OC(C)=O)C(OC(C)=O)C3OC(C)=O)OC(OC(C)=O)C(OC(C)=O)C2OC(C)=O)C(OC(C)=O)C(OC(C)=O)C1OC(C)=O (centres undefined) :: > 100 µM
6) CC(=O)OCOC(=O)CN(CC(=O)OCOC(C)=O)Cc1cc2c(cc1OC(C)=O)Oc1cc(OC(C)=O)c(CN(CC(=O)OCOC(C)=O)CC(=O)OCOC(C)=O)cc1C21OC(=O)c2ccccc21 :: 0.401 µM
7) C/C(=N/NC(=S)Nc1ccc([N+](=O)[O-])cc1)c1cccc(/C(C)=N\NC(=S)Nc2ccc([N+](=O)[O-])cc2)n1 :: > 39.4 µM
8) CC#CC#C/C=C1/O[C@]2(CCC(OC(C)=O)CO2)[C@@H]2O[C@H]12 (some centres undefined) :: > 100 µM
9) COc1ccc(OCc2nc3cc(C(F)(F)F)ccc3nc2-c2ccccc2)cc1 :: > 100 µM
10) CCOc1ccc(NC(=O)C(=O)CC(=O)C2=C(C)Nc3ccccc3S2)cc1 :: > 50 µM
11) CCCNC1=C(C(=O)OCC)C(=O)CO1 :: > 100 µM
12) Cc1ccc(C2=Nc3cccc4cccc(c34)N2)cc1 :: > 100 µM
13) O=C(CSc1nnc(-c2ccc(N=Cc3ccc(Cl)cc3)cc2)o1)Nc1ccc(Cl)cc1Cl :: > 100 µM
14) Nc1nc2c(c3ncncc13)C(c1cccc(C(F)(F)F)c1)Cc1ncncc1-2 (centres undefined) :: 22.8 µM
15) CCOP(=O)(OCC)C1CC(O)C(=O)N1 (centres undefined) :: > 100 µM
16) NC1C[C@H](n2cc(/C=C/Br)c(=O)[nH]c2=O)C[C@@H]1CO (some centres undefined) :: > 100 µM
17) CC1SC(c2ccccc2)N(CCc2cccs2)C1=O (centres undefined) :: > 100 µM
18) CCc1ccccc1NC(=O)C(=O)CC(=O)c1sc(Nc2ccccc2)nc1C :: > 100 µM
19) CCCCCCCCCCCCCCCCN1CC2CCCCC2C1 (centres undefined) :: 11.2 µM
